- target.under.test: T1, human Claudin18.2 (CLDN18.2) (human, UniProt P56856 1-261)
- T1 construct: the cell line is named under assay; also called human Claudine18.2; hClaudin18.2
- procedure.details: FACS on GAXC031 cells, antibody at 50 µg/ml
Give measured MAX MFI for each item. Keep answers brief.
Keep it simple and answer with nothing but the number.

According to the records, this binder chAb08 (antibody, V domains shown) VH: QVQLQQPGAELVKPGASVKLSCKASGYTFTSYLLHWVKQRPGQGLEWIGMIHPNGGSTNYNEKFKTKATLTVDKSSSTAYMQLSSLTSEDSAVYYCAPVYFGNSFAYWGQGTLVTVSA VL: DIVMTQSPSSLTVTAGEKVTMSCKSSQSLLNSGNQKNYLTWYQQKPGQPPKLLIYWASTRESGVPDRFTGSGSGTDFTLTISSVQAEDLAVYYCQNDYYYPFTFGSGTKLEKK displays MAX MFI of 5830

The measured MAX MFI associated with chAb31 (antibody, V domains shown) VH: QIQLAQSGPELKKPGETVKISCKASGYSFTNYGMNWVKQAPGKGLKWMGWINTYSGETKYADDFKGRFDFSLETSARTAYLQIKNLKIEDTATYFCARRDAMDYWGQGTSVTVSS VL: DIVMTQAAPSVPVTPGESVSISCRSSKSLLNSNGNTYLYWFLQRPGQSPQLLIYRMSNLASGVPDRFSGSGSGTAFTLRISRVEAEDVGVYYCMQHLEFPFTFGSGTKLEIK reads 3770

Source listed as patent US20230095569A1.
